Catalogue of relative binding ratio (IC50 of the test peptide divided by IC50 of the reference peptide) values
target-system: DRB1*0701 (Homo sapiens, UniProt P01903+P01911, A100R/A102G/A103Q/D57E/D86V/E43K/F76Y/K127E/L162R/M171V/P40G/Q125H/Q99D/R33Q/R42Y/R54Q/S133A/S66F/T210M/V115G/Y107V/Y59L/Y89S)
measurement-description: HLA class II peptide-binding assay (competitive ELISA)
experimental-context: immunopurified HLA, reference peptide IC50 5 nM, ratio ≤20 high affinity, 20–200 moderate affinity

Known results for sequences:
HYIFYCEGELHGKPVR [pTL6, Tear lipocalin peptide p96–111] ... 2 222
ESILIPRQSETCSPGSD [pTL9, Tear lipocalin peptide p142–158] ... > 1 874

Form field relative binding ratio (IC50 of the test peptide divided by IC50 of the reference peptide), entry KPDSVTPMILKAQKGGNL [pC2, Can f 1 peptide p31–48] : > 1 874
